quantity kind: melting point

Query (molecule): Nc1nc(Nc2ccc(Cl)cc2)sc1C(=O)c1cccc(OCc2ccccc2)c1 ; field requested: melting point 173 to 174 °C

Query (molecule): Nc1nc(Nc2ccccc2)sc1C(=O)c1csc2ccccc12 ; field requested: melting point 211 to 212 °C

Query (molecule): Nc1nc(Nc2ccccc2)sc1C(=O)c1ccc(F)c(F)c1 ; field requested: melting point 178 to 180 °C

Query (molecule): Nc1nc(Nc2ccccc2)sc1C(=O)c1cccc(F)c1 ; field requested: melting point 161 to 164 °C

Query (molecule): CCCNc1nc(N)c(C(=O)c2cccnc2)s1 ; field requested: melting point 205 to 206 °C

Query (molecule): CCC(=O)c1sc(Nc2ccccc2)nc1N ; field requested: melting point 136 to 139 °C

Query (molecule): Nc1nc(Nc2ccccc2)sc1C(=O)c1ccc(Cl)s1 ; field requested: melting point 167 to 169 °C

Query (molecule): Cc1cc(C(=O)c2sc(Nc3ccccc3)nc2N)ccc1Cl ; field requested: melting point 173 to 175 °C

Query (molecule): COc1cccc(C(=O)c2sc(Nc3ccccc3)nc2N)c1 ; field requested: melting point 174 to 175 °C

Query (molecule): COc1ccccc1C(=O)c1sc(Nc2ccccc2)nc1N ; field requested: melting point 196 to 200 °C

Query (molecule): COc1ccc(C(=O)c2sc(Nc3ccccc3)nc2N)c(OC)c1 ; field requested: melting point 196 to 198 °C

Query (molecule): CON(C)C(=O)c1sc(Nc2ccccc2)nc1N ; field requested: melting point 152 to 153 °C

Query (molecule): Nc1nc(Nc2ccccc2)sc1C(=O)c1cccc(OCc2ccccc2)c1 ; field requested: melting point 121 to 124 °C

Query (molecule): Cc1cc(C)c(C(=O)c2sc(Nc3ccccc3)nc2N)c(C)c1 ; field requested: melting point 198 to 200 °C

Query (molecule): Nc1nc(Nc2ccccc2)sc1C(=O)c1ccc(OC(F)(F)F)cc1 ; field requested: melting point 170 to 173 °C

Query (molecule): Nc1nc(Nc2ccccc2)sc1C(=O)c1ccc([N+](=O)[O-])cc1 ; field requested: melting point 206 to 208 °C

Query (molecule): Cc1c(C(=O)c2sc(Nc3ccccc3)nc2N)sc2ccccc12 ; field requested: melting point 165 to 167 °C

Query (molecule): Nc1nc(Nc2ccccc2)sc1C(=O)c1ccc(-c2ccccc2)cc1 ; field requested: melting point 224 to 225 °C

Query (molecule): Nc1nc(Nc2ccccc2)sc1C(=O)c1ccc(Cl)c(Cl)c1 ; field requested: melting point 195 to 198 °C

Query (molecule): COc1cccc(OC)c1C(=O)c1sc(Nc2ccccc2)nc1N ; field requested: melting point 224 to 226 °C
